Assignment: determine reported growth for the given molecules.
# System: A498 renal
# test: NCI-60 one-dose screen, 48 h (100 = growth as untreated, 0 = no growth, -100 = all killed)
# particulars: 10 µM unless noted
About 83,000 compounds went through this panel and 20% of them were active in at least one assay; those are over-represented in the sample as a whole.
The figure you give is taken to be in %; do not add the unit.

### Prompt If you can, please state the reported growth value of `O=C1NC(=S)NC(=O)C1CC(=O)n1c(-c2ccccc2)nc2ccccc21` .
### Response 89

### Prompt If you can, please state the reported growth value of `C=C1c2nc3ccccc3n2C=C(c2cccc(Cl)c2)N1Cc1ccc(OC)cc1` .
### Response 91.7

### Prompt If you can, please state the reported growth value of `COc1ccccc1NS(=O)(=O)c1ccc2oc(SC(C)C)nc2c1` .
### Response 91.4

Data provenance: PubChem BioAssay (NCI)
